Quick reference: shrunken log2 fold change of the listed items.
System: Escherichia coli TOP10
Assay name: shrunken log2 fold change of peptide-encoding DNA abundance (4.5 h post-induction vs induction); higher = less antimicrobial activity (less host growth inhibition)
Test settings: time post-induction: 4.5 h; library: site-saturation at positions 5, 18, 19, 20

input: Could you tell me which shrunken log2 fold change is on file for RRIRERPPRLPRPRPRPQPEPRP ?
output: -0.0263

input: // same read-out, input: RRIRDRPPRLPRPRPRPRYNPRP
output: -0.513

input: Same lookup for RRIRKRPPRLPRPRPRPRPNPRP , please.
output: 0.42

input: And then RRIRCRPPRLPRPRPRPMQDPRP , what is it?
output: -0.0947

input: Could you do the same for RRIRTRPPRLPRPRPRPHESPRP , please?
output: -0.0124

input: # iterate: RRIRARPPRLPRPRPRPHIFPRP
output: 0.141

----------
Tested on: Escherichia coli TOP10
Assay name: shrunken log2 fold change of peptide-encoding DNA abundance (4.5 h post-induction vs induction); higher = less antimicrobial activity (less host growth inhibition)
Test settings: time post-induction: 4.5 h; library: site-saturation at positions 5, 18, 19, 20
// values below are reported shrunken log2 fold change
Respond using a number only.

input: // query shrunken log2 fold change value for entry RRIRIRPPRLPRPRPRPYPDPRP
output: -0.039

input: Another sequence to check: RRIRARPPRLPRPRPRPQSFPRP
output: -0.121

input: Proceed to RRIRDRPPRLPRPRPRPIFMPRP
output: -0.285

input: Another sequence to check: RRIRQRPPRLPRPRPRPQKRPRP
output: -0.354

Next:
input: Consider the sequence shown here: RRIRYRPPRLPRPRPRPCMRPRP What is its recorded shrunken log2 fold change?
output: -0.091

input: Here is the next sequence: RRIRKRPPRLPRPRPRPPESPRP
output: 0.303

input: Try this sequence next: RRIRYRPPRLPRPRPRPKLEPRP
output: 0.00557

input: Thanks! And RRIRARPPRLPRPRPRPSRTPRP ?
output: 0.471

----------
System: Escherichia coli TOP10
Assay name: shrunken log2 fold change of peptide-encoding DNA abundance (4.5 h post-induction vs induction); higher = less antimicrobial activity (less host growth inhibition)
Test settings: time post-induction: 4.5 h; library: site-saturation at positions 5, 18, 19, 20
Note to self: class = bucket of shrunken log2 fold change, per lo = under -0.1, mid = from -0.1 up to 0.04, hi = 0.04 and over

Please review the entries below; each comes with its answer.
input: # bin label for RRIRCRPPRLPRPRPRPVQCPRP
output: hi

input: What about RRIRVRPPRLPRPRPRPNPVPRP ?
output: lo

input: Proceed to RRIRMRPPRLPRPRPRPHNCPRP
output: mid

Continuing:
input: For this sequence, which bin applies? RRIRRRPPRLPRPRPRPQEAPRP
output: mid

input: Same read-out for RRIRWRPPRLPRPRPRPREVPRP ?
output: hi

input: Also RRIRLRPPRLPRPRPRPYKTPRP , if possible.
output: lo

input: Now the same for RRIRTRPPRLPRPRPRPHGDPRP
output: lo

input: Do the same for RRIRERPPRLPRPRPRPESIPRP please
output: hi

input: Entry RRIRYRPPRLPRPRPRPWWIPRP please
output: mid

----------
Test system: Escherichia coli TOP10
Assay name: shrunken log2 fold change of peptide-encoding DNA abundance (4.5 h post-induction vs induction); higher = less antimicrobial activity (less host growth inhibition)
Test settings: time post-induction: 4.5 h; library: site-saturation at positions 5, 18, 19, 20
Returns one of condition met or condition not met; condition met when shrunken log2 fold change is >= -0.07.

Record excerpt, results attached:
input: // inclusive: shrunken log2 fold change at least -0.07? input: RRIRWRPPRLPRPRPRPEFCPRP
output: condition met

input: Follow-up entry: RRIRNRPPRLPRPRPRPFVVPRP
output: condition not met

input: Next: RRIRHRPPRLPRPRPRPMWRPRP
output: condition met

input: Similarly, RRIRGRPPRLPRPRPRPESSPRP ?
output: condition met

input: How about RRIRFRPPRLPRPRPRPYYYPRP ?
output: condition not met

Further cases:
input: # check: shrunken log2 fold change of RRIRGRPPRLPRPRPRPINSPRP is greater than or equal to -0.07
output: condition met

input: Next sequence: RRIRQRPPRLPRPRPRPIHLPRP
output: condition not met

input: Repeat with RRIRYRPPRLPRPRPRPWNHPRP
output: condition met

input: Moving on to RRIRCRPPRLPRPRPRPEWCPRP
output: condition met

input: What do we get for RRIRARPPRLPRPRPRPWTCPRP ?
output: condition met

input: Now consider RRIRIRPPRLPRPRPRPNRDPRP .
output: condition met

input: Another sequence: RRIRGRPPRLPRPRPRPQNVPRP
output: condition met

----------
System: Escherichia coli TOP10
Assay name: shrunken log2 fold change of peptide-encoding DNA abundance (4.5 h post-induction vs induction); higher = less antimicrobial activity (less host growth inhibition)
Test settings: time post-induction: 4.5 h; library: site-saturation at positions 5, 18, 19, 20
Returns one of label 1 or label 0; label 1 when shrunken log2 fold change is >= 0.03.

input: Can RRIRVRPPRLPRPRPRPKQVPRP be said to have shrunken log2 fold change at or above 0.03?
output: label 0

input: Quick one: RRIRCRPPRLPRPRPRPMWAPRP
output: label 1

input: And what about the sequence RRIRYRPPRLPRPRPRPVALPRP ?
output: label 0

input: Okay, and RRIRARPPRLPRPRPRPLIQPRP ?
output: label 1

input: One more sequence: RRIRVRPPRLPRPRPRPFYWPRP
output: label 0

Continuing:
input: Given the entry RRIRFRPPRLPRPRPRPMLWPRP , answer whether its shrunken log2 fold change meets or surpasses 0.03.
output: label 1

input: Can you check RRIRQRPPRLPRPRPRPPKEPRP next?
output: label 0

input: Repeat with RRIRTRPPRLPRPRPRPTYSPRP
output: label 0

input: Same lookup for RRIRRRPPRLPRPRPRPIFEPRP , please.
output: label 1

input: Continue with RRIRNRPPRLPRPRPRPARAPRP
output: label 1

input: Consider next the sequence RRIRLRPPRLPRPRPRPGHDPRP in the same way.
output: label 1

input: Next sequence: RRIRRRPPRLPRPRPRPFALPRP
output: label 0

input: And the next one, RRIRLRPPRLPRPRPRPPPCPRP ?
output: label 1

input: Continue with RRIRRRPPRLPRPRPRPYASPRP
output: label 0

input: Record: RRIRFRPPRLPRPRPRPGNWPRP
output: label 1

input: Thanks! And RRIRFRPPRLPRPRPRPMREPRP ?
output: label 1

input: Entry to check: RRIRFRPPRLPRPRPRPTEPPRP
output: label 0

input: Could you do the same for RRIRQRPPRLPRPRPRPAKGPRP , please?
output: label 0

input: RRIRMRPPRLPRPRPRPSAKPRP , same question.
output: label 1

input: Same again, this time with RRIRRRPPRLPRPRPRPEWKPRP
output: label 1

input: What do you have for RRIRDRPPRLPRPRPRPMYMPRP ?
output: label 0

input: How about RRIRLRPPRLPRPRPRPLFWPRP ?
output: label 1

----------
System: Escherichia coli TOP10;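 also: peptides expressed intracellularly from a pBAD plasmid library in pooled LB shake-flask culture, induced with 0.3% L-arabinose, DNA abundance read by NGS, three biological replicates, DESeq2 with apeglm shrinkage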
Assay name: shrunken log2 fold change of peptide-encoding DNA abundance (4.5 h post-induction vs induction); higher = less antimicrobial activity (less host growth inhibition)
Test settings: time post-induction: 4.5 h; library: site-saturation at positions 5, 18, 19, 20
Readout label: shrunken log2 fold change
Reply: number alone, nothing else.

input: I'd like to know its shrunken log2 fold change. The sequence in question is RRIRERPPRLPRPRPRPSWWPRP
output: 2.26

---
input: Any idea what shrunken log2 fold change was measured for RRIRPRPPRLPRPRPRPRYGPRP ?
output: 0.00536

input: Input RRIRMRPPRLPRPRPRPCEVPRP
output: -0.181

input: RRIRGRPPRLPRPRPRPTLRPRP , same question.
output: 0.793

input: # repeat for RRIRMRPPRLPRPRPRPFLDPRP
output: -0.198

input: Consider next the sequence RRIRWRPPRLPRPRPRPVQQPRP in the same way.
output: -0.0911

input: Another: RRIRDRPPRLPRPRPRPRAQPRP
output: 0.457

input: Likewise for RRIRMRPPRLPRPRPRPGNQPRP ?
output: -0.0232

input: Continue with RRIRRRPPRLPRPRPRPRQHPRP
output: 0.288

input: Further, for RRIRDRPPRLPRPRPRPWSPPRP ?
output: 0.127

input: Same for RRIRPRPPRLPRPRPRPPYKPRP
output: -0.113

input: And RRIRQRPPRLPRPRPRPKESPRP ?
output: 0.0355

input: // query: RRIRIRPPRLPRPRPRPLRFPRP
output: -0.21

input: What do you have for RRIRTRPPRLPRPRPRPDVNPRP ?
output: 0.21

input: Another: RRIRYRPPRLPRPRPRPEMTPRP
output: -0.0508

input: Now this one: RRIRTRPPRLPRPRPRPPMYPRP
output: -0.406

input: RRIRDRPPRLPRPRPRPVTTPRP , same question.
output: 0.0135

input: What do you have for RRIRVRPPRLPRPRPRPKYYPRP ?
output: -0.921

input: Quick one: RRIRARPPRLPRPRPRPCGRPRP
output: 0.526

input: Another: RRIRCRPPRLPRPRPRPNWDPRP
output: -0.185

input: Same again, this time with RRIRDRPPRLPRPRPRPLRFPRP
output: 0.61

input: One more sequence: RRIRSRPPRLPRPRPRPYPTPRP
output: -0.234

input: Next sequence: RRIRGRPPRLPRPRPRPMSRPRP
output: 0.00829

input: Another sequence to check: RRIRNRPPRLPRPRPRPRPHPRP
output: 0.226

input: Same lookup for RRIRFRPPRLPRPRPRPDYFPRP , please.
output: -0.167

input: And for RRIRPRPPRLPRPRPRPLNSPRP ?
output: -0.262

input: Quick one: RRIRTRPPRLPRPRPRPSKTPRP
output: 0.0543

input: Record: RRIRIRPPRLPRPRPRPQHGPRP
output: -0.184

input: For RRIRGRPPRLPRPRPRPFIKPRP then?
output: -0.484
